# System: Dd2
# measurement-notes: qHTS profiling for inhibitors of Plasmodium falciparum proliferation (AID 504749); also: nearly all actives have a fitted effect of over 60% in size
# protocol-conditions: P. falciparum in erythrocytes, SYBR Green DNA, 72 h; series mostly up to 28.7 µM
# Description: NIH National Institute of Allergy and Infectious Diseases [NIAID] NIH Chemical Genomics Center [NCGC] […] Because mature erythrocytes lack DNA, only Plasmodium-derived DNA is detected. NCGC Assay Protocol Summary: The SYBR Green viability assay was adapted from a method described previously (Plouffe et al., 2008). […] The following morning, fluorescence intensity at 485(14) nm excitation and 535(25) nm emission wavelengths was measured on an EnVision (Perkin Elmer) plate reader. […]
Inconclusive results are not listed. The source made the active and inactive calls. Calls follow the shape of the dose curve; as a rule, active = well fitted inhibition curve with a large enough effect; inconclusive = small, poorly fitted or top-dose-only effect; inactive = flat fitted curve, though single readings scatter.
Labels: true (1) for active, false (0) for inactive

| molecule | target | assigned-category |
| --- | --- | --- |
| OC[C@H](S)CS | Dd2 | true (1) |
| Cc1onc(-c2c(F)cccc2Cl)c1C(=O)N[C@@H]1C(=O)N2[C@H]1SC(C)(C)[C@H]2C(=O)O | Dd2 | false (0) |
| Cc1cn([C@H]2C[C@H](N=[N+]=[N-])[C@H](CO)O2)c(=O)[nH]c1=O | Dd2 | false (0) |
| C=C(NC(=O)C(=C)NC(=O)c1csc(C2=N[C@@H]3c4csc(n4)[C@@H]4NC(=O)c5csc(n5)[C@@H]([C@](C)(O)[C@H](C)O)NC(=O)[C@@H]5CSC(=N5)/C(=C/C)NC(=O)[C@@H]([C@H](C)O)NC(=O)c5csc(n5)[C@]3(CC2)NC(=O)[C@@H](C)NC(=O)C(=C)NC(=O)[C@@H](C)NC(=O)[C@@H]([C@@H](C)CC)N[C@H]2C=Cc3c([C@H](C)O)cc(nc3[C@@H]2O)C(=O)O[C@H]4C)n1)C(N)=O | Dd2 | true (1) |
| N[C@@H](Cc1ccccc1)C(=O)O | Dd2 | false (0) |
| Cc1c(C(=O)O)c(O)cc2c1C(=O)c1c(O)c([C@H]3O[C@H](CO)[C@@H](O)[C@H](O)[C@H]3O)c(O)c(O)c1C2=O | Dd2 | false (0) |
| NS(=O)(=O)c1cc2c(cc1Cl)N[C@H](Cc1ccccc1)NS2(=O)=O | Dd2 | false (0) |
| CN(C)[C@H]1C(=O)C(C(=O)NCN2CCCC2)=C(O)[C@]2(O)C(=O)C3=C(O)c4c(O)cccc4[C@](C)(O)[C@H]3C[C@H]12 | Dd2 | false (0) |
| CC(=O)N1CCN(c2ccc(OC[C@@H]3CO[C@@](Cn4ccnc4)(c4ccc(Cl)cc4Cl)O3)cc2)CC1 | Dd2 | false (0) |
| C[N+]1(C)[C@@H]2CC(OC(=O)[C@@H](CO)c3ccccc3)C[C@@H]1[C@H]1O[C@H]12 (stereo partly drawn) | Dd2 | false (0) |
| N[C@H](COP(=O)(O)O)C(=O)O | Dd2 | false (0) |
| CC1(C)[C@@H]2CC[C@]1(C)[C@@H](OC(=O)CSC#N)C2 | Dd2 | false (0) |
| COc1cccc2c1C(=O)c1c(O)c3c(c(O)c1C2=O)C[C@](O)(C(=O)CO)C[C@@H]3O[C@H]1C[C@H](N)[C@@H](O)[C@H](C)O1 | Dd2 | false (0) |
| CC(C)(C)c1ccc(CN2CCN([C@H](c3ccccc3)c3ccc(Cl)cc3)CC2)cc1 | Dd2 | true (1) |
| C[C@H](CCC(=O)O)[C@H]1CC[C@@H]2[C@H]3[C@@H](C[C@@H](O)[C@]21C)[C@]1(C)CC[C@H](O)C[C@@H]1C[C@@H]3O | Dd2 | false (0) |
| CC1(C)S[C@@H]2[C@H](NC(=O)Cc3ccccc3)C(=O)N2[C@@H]1C(=O)O | Dd2 | false (0) |
| C[C@@H]1C[C@H]2[C@H]3C[C@@H](F)C4=CC(=O)C=C[C@]4(C)[C@@]3(Cl)[C@@H](O)C[C@@]2(C)[C@@H]1C(=O)COC(=O)C(C)(C)C | Dd2 | true (1) |
| C=C1CC[C@H](O)C/C1=C/C=C1\CCC[C@]2(C)[C@@H]([C@H](C)CCCC(C)C)CC[C@@H]12 | Dd2 | true (1) |
